# experimentalTarget: UniProt Q15119
# methodNotes: Inhibitory action of PDHK2 activity in vitro (residual PDH activity after PDHK reaction)
# conditionLabel: PDH/hPDHK2 complex solution, PDHK reaction at room temperature for 45 min, NADH absorbance at 340 nm; read-out: kPDK2 IC50
Measured IC50 of individual entries
observationType: IC50 (nM)

[[record]]
compound = "C[C@H]1CN(C(=O)c2cc(C3CC3)nn2C)Cc2onc([C@@](C)(O)C(F)(F)F)c21 [Example 108]"
resultunits = "nM"
operatorsymbol = "="
obsvalue = 6

[[record]]
compound = "C[C@H]1CN(C(=O)c2ccc(C#N)c(-c3ccc(F)cn3)c2)Cc2cnc([C@@](C)(O)C(F)(F)F)n21 [Example 77]"
resultunits = "nM"
operatorsymbol = "="
obsvalue = 9

[[record]]
compound = "C[C@H]1CN(C(=O)c2cc(-c3ccccc3)nn2C)Cc2nnc([C@@](C)(O)C(F)(F)F)n21 [Example 122]"
resultunits = "nM"
operatorsymbol = "="
obsvalue = 7

[[record]]
compound = "C[C@H]1CN(C(=O)[C@H]2NCCc3ccccc32)Cc2onc([C@@](C)(O)C(F)(F)F)c21 [Example 105]"
resultunits = "nM"
operatorsymbol = "="
obsvalue = 8

[[record]]
compound = "C[C@H]1CN(C(=O)c2cc(-c3ccc(F)cc3)on2)Cc2cnc([C@@](C)(O)C(F)(F)F)n21 [Example 26]"
resultunits = "nM"
operatorsymbol = "="
obsvalue = 14

[[record]]
compound = "CC(=O)N1CCc2ccccc2[C@H]1C(=O)N1Cc2onc([C@@](C)(O)C(F)(F)F)c2[C@@H](C)C1 [Example 107]"
resultunits = "nM"
operatorsymbol = "="
obsvalue = 6

[[record]]
compound = "C[C@H]1CN(C(=O)c2cc3n(n2)CCC3)Cc2onc([C@@](C)(O)C(F)(F)F)c21 [Example 100]"
resultunits = "nM"
operatorsymbol = "="
obsvalue = 5

[[record]]
compound = "C[C@H]1CN(C(=O)c2cn(C)nc2C2CC2)Cc2onc([C@@](C)(O)C(F)(F)F)c21 [Example 121]"
resultunits = "nM"
operatorsymbol = "="
obsvalue = 5

[[record]]
compound = "C[C@H]1CN(C(=O)c2ccnn2C2CC2)Cc2onc([C@@](C)(O)C(F)(F)F)c21 [Example 109]"
resultunits = "nM"
operatorsymbol = "="
obsvalue = 5

[[record]]
compound = "C[C@H]1CN(C(=O)c2cccc(-c3ccc(C#N)cn3)c2)Cc2cnc([C@@](C)(O)C(F)(F)F)n21 [Example 79]"
resultunits = "nM"
operatorsymbol = "="
obsvalue = 8

[[record]]
compound = "C[C@H]1CN(C(=O)c2c3ccc(C#N)cc3nn2C)Cc2cnc([C@@](C)(O)C(F)(F)F)n21 [Example 4]"
resultunits = "nM"
operatorsymbol = "="
obsvalue = 5

[[record]]
compound = "C[C@H]1CN(C(=O)c2nn(C)c3cc(F)c(F)cc23)Cc2cnc([C@@](C)(O)C(F)(F)F)n21 [Example 10]"
resultunits = "nM"
operatorsymbol = "="
obsvalue = 13

[[record]]
compound = "C[C@H]1CN(C(=O)c2cc(-c3ccc(C#N)cc3F)nn2C)Cc2cnc([C@@](C)(O)C(F)(F)F)n21 [Example 50]"
resultunits = "nM"
operatorsymbol = "="
obsvalue = 5

[[record]]
compound = "C[C@H]1CN(C(=O)c2ccnc(-c3ccc(C#N)cc3F)c2)Cc2cnc([C@@](C)(O)C(F)(F)F)n21 [Example 62]"
resultunits = "nM"
operatorsymbol = "="
obsvalue = 4

[[record]]
compound = "C[C@H]1CN(C(=O)c2cc(C3CC3)nn2C)Cc2cnc([C@@](C)(O)C(F)(F)F)n21 [Example 14]"
resultunits = "nM"
operatorsymbol = "<"
obsvalue = 3

[[record]]
compound = "C[C@H]1CN(C(=O)c2cnc(-c3ccccc3)nc2)Cc2cnc([C@@](C)(O)C(F)(F)F)n21 [Example 56]"
resultunits = "nM"
operatorsymbol = "="
obsvalue = 10

[[record]]
compound = "C[C@H]1CN(C(=O)c2ccnn2C2CC2)Cc2cnc([C@@](C)(O)C(F)(F)F)n21 [Example 32]"
resultunits = "nM"
operatorsymbol = "="
obsvalue = 10

[[record]]
compound = "C[C@H]1CN(C(=O)c2cccc(-c3ccc(F)cc3)n2)Cc2cnc([C@@](C)(O)C(F)(F)F)n21 [Example 38]"
resultunits = "nM"
operatorsymbol = "="
obsvalue = 4

[[record]]
compound = "C[C@H]1CN(C(=O)c2ccc(-c3ccc(F)cc3)cn2)Cc2cnc([C@@](C)(O)C(F)(F)F)n21 [Example 42]"
resultunits = "nM"
operatorsymbol = "="
obsvalue = 5

[[record]]
compound = "C[C@H]1CN(C(=O)c2nnc(C3CC3)o2)Cc2onc([C@@](C)(O)C(F)(F)F)c21 [Example 115]"
resultunits = "nM"
operatorsymbol = "="
obsvalue = 8

[[record]]
compound = "C[C@H]1CN(C(=O)c2ccnc(C3CC3)c2)Cc2cnc([C@@](C)(O)C(F)(F)F)n21 [Example 96]"
resultunits = "nM"
operatorsymbol = "="
obsvalue = 8

[[record]]
compound = "C[C@H]1CN(C(=O)c2cc(C3(C)CC3)nn2C)Cc2onc([C@@](C)(O)C(F)(F)F)c21 [Example 118]"
resultunits = "nM"
operatorsymbol = "="
obsvalue = 4

[[record]]
compound = "C[C@H]1CN(C(=O)c2ccc(F)c(-c3cncc(F)c3)c2)Cc2cnc([C@@](C)(O)C(F)(F)F)n21 [Example 83]"
resultunits = "nM"
operatorsymbol = "="
obsvalue = 11

[[record]]
compound = "C[C@H]1CN(C(=O)c2n[nH]c3ccc(F)cc23)Cc2onc([C@@](C)(O)C(F)(F)F)c21 [Example 104]"
resultunits = "nM"
operatorsymbol = "="
obsvalue = 6

[[record]]
compound = "C[C@H]1CN(C(=O)c2cc(C3CCOCC3)nn2C)Cc2cnc([C@@](C)(O)C(F)(F)F)n21 [Example 20]"
resultunits = "nM"
operatorsymbol = "="
obsvalue = 12

[[record]]
compound = "C[C@H]1CN(C(=O)c2cc(C3CC3)nn2CC(F)(F)F)Cc2cnc([C@@](C)(O)C(F)(F)F)n21 [Example 36]"
resultunits = "nM"
operatorsymbol = "="
obsvalue = 5

[[record]]
compound = "C[C@H]1CN(C(=O)c2ncccc2-c2ccc(F)cc2)Cc2cnc([C@@](C)(O)C(F)(F)F)n21 [Example 39]"
resultunits = "nM"
operatorsymbol = "="
obsvalue = 18

[[record]]
compound = "C[C@H]1CN(C(=O)c2nc3ccc(F)cc3o2)Cc2cnc([C@@](C)(O)C(F)(F)F)n21 [Example 2]"
resultunits = "nM"
operatorsymbol = "="
obsvalue = 15

[[record]]
compound = "C[C@H]1CN(C(=O)c2cc(C3(C)CC3)n(C)n2)Cc2onc([C@@](C)(O)C(F)(F)F)c21 [Example 119]"
resultunits = "nM"
operatorsymbol = "="
obsvalue = 5

